Numbers sourced from patent US10399986B2.

Experimental System: LTA4-h (Homo sapiens)
Sequence (P09960 whole entry): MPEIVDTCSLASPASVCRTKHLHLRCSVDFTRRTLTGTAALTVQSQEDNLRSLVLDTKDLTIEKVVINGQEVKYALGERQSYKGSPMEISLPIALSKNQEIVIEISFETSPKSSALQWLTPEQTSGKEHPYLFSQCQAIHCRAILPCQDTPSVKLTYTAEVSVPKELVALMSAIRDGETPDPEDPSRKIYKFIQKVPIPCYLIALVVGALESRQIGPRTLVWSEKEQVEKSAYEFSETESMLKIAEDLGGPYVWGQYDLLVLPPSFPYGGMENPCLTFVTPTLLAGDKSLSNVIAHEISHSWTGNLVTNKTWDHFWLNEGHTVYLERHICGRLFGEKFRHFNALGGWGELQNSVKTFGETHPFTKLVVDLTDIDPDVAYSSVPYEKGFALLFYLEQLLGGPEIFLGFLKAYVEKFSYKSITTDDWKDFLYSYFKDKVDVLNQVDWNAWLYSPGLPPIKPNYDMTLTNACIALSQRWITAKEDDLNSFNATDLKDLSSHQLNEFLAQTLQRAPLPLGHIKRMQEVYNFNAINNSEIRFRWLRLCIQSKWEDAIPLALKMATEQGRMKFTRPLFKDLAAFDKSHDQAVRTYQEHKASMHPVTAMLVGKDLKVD
Assay Comment: hydrolase assay
Assay type: biochemical
pIC50: −log10 of the molar value.

| Molecule | pIC50 |
| --- | --- |
| CS(=O)(=O)c1ccc(-c2cnc3c(C#N)c(Nc4ccc(Oc5ccccc5)cc4)nn3c2)c([N+](=O)[O-])c1 [Compound 2] | 5.43 |
| N#Cc1c(Nc2ccc(Oc3ccccc3)cc2)nn2cc(N)cnc12 [Compound 1] | 5.82 |

###

Experimental System: LTA4-h (Homo sapiens)
Assay Comment: peptidase (aminopeptidase) assay
Assay type: biochemical
Observable: IC50 (nM)

| Compound | Observable | Reported |
| --- | --- | --- |
| N#Cc1c(Nc2ccc(Oc3ccccc3)cc2)nn2cc(-c3cc(C(=O)O)ccc3[N+](=O)[O-])cnc12 [Compound 3] | IC50 | 430 |
| CS(=O)(=O)c1ccc(-c2cnc3c(C#N)c(Nc4ccc(Oc5ccccc5)cc4)nn3c2)c([N+](=O)[O-])c1 [Compound 2] | IC50 | 260 |
| N#Cc1c(Nc2ccc(Oc3ccccc3)cc2)nn2cc(C(=O)c3cc([N+](=O)[O-])ccc3O)cnc12 [Compound 4] | IC50 | 1700 |
| N#Cc1c(Nc2ccc(Oc3ccccc3)cc2)nn2cc(-c3ccc(C(=O)O)cn3)cnc12 [Compound 12] | IC50 | 84 |
